Molecular target: Neprilysin (Homo sapiens, UniProt P08473)
Sequence (P08473 whole entry): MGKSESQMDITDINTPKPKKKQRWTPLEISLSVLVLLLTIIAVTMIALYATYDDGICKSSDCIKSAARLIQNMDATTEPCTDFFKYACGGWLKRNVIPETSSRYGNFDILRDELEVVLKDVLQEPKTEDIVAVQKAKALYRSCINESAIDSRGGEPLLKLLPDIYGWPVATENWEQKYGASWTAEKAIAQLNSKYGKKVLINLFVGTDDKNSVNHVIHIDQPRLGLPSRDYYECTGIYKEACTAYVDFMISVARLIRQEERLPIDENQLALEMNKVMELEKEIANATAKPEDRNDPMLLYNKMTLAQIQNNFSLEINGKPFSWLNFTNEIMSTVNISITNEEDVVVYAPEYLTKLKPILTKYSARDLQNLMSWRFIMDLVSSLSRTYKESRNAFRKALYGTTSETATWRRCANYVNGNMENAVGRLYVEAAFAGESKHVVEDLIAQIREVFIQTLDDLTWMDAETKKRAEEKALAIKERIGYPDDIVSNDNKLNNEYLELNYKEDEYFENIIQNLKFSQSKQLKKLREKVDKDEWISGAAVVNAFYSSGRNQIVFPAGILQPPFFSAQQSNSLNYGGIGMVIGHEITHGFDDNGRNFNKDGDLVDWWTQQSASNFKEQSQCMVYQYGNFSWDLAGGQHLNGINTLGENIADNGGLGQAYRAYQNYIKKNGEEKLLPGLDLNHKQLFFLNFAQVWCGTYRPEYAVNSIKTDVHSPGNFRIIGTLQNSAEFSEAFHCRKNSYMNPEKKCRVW
Test: Inhibition of human recombinant NEP by fluorescence assay
Conditions: read-out: Ki app
measurement.kind: Ki (nM)
Answer with a number only, understood to be in nM.

In the examples that follow, each entry is paired with its recorded Ki.
{"smiles.structure": "CCCC[C@H](S)C(=O)N[C@@H](Cc1ccc(-c2ccccc2)cc1)C(=O)O", "target.or.system": "Neprilysin (Homo sapiens, UniProt P08473)", "readout.value": 1.2}
{"smiles.structure": "O=C(N[C@@H](Cc1ccc(-c2ccccc2)cc1)C(=O)O)[C@H](S)Cc1ccccc1", "target.or.system": "Neprilysin (Homo sapiens, UniProt P08473)", "readout.value": 1.3}
{"smiles.structure": "CC[C@H](C)[C@H](S)C(=O)N[C@@H](Cc1ccc(-c2ccccc2)cc1)C(=O)O", "target.or.system": "Neprilysin (Homo sapiens, UniProt P08473)", "readout.value": 2.4}
{"smiles.structure": "O=C(CS)N[C@@H](Cc1ccc(-c2ccccc2)cc1)C(=O)O", "target.or.system": "Neprilysin (Homo sapiens, UniProt P08473)", "readout.value": 13}
{"smiles.structure": "CC(C)(S)C(=O)N[C@@H](Cc1ccc(-c2ccccc2)cc1)C(=O)O", "target.or.system": "Neprilysin (Homo sapiens, UniProt P08473)", "readout.value": 730}
{"smiles.structure": "O=C(O)[C@H](Cc1ccc(-c2ccccc2)cc1)NC(=O)[C@@H](S)Cc1ccccc1", "target.or.system": "Neprilysin (Homo sapiens, UniProt P08473)", "readout.value": 1.1}
{"smiles.structure": "O=C(O)[C@H](Cc1ccc(-c2ccccc2)cc1)NC(=O)[C@@H](S)c1ccccc1", "target.or.system": "Neprilysin (Homo sapiens, UniProt P08473)", "readout.value": 410}
{"smiles.structure": "CC[C@H](S)C(=O)N[C@@H](Cc1ccc(-c2ccccc2)cc1)C(=O)O", "target.or.system": "Neprilysin (Homo sapiens, UniProt P08473)", "readout.value": 0.8}

Please look at the following compound next.
Ask | Respond only with Ki recorded for O=C(O)[C@H](Cc1ccc(-c2ccccc2)cc1)NC(=O)[C@@H](S)C1CCC1
Reply | 5.4

###

Biological target: Angiotensin-converting enzyme (Homo sapiens)
Sequence (P12821 whole entry): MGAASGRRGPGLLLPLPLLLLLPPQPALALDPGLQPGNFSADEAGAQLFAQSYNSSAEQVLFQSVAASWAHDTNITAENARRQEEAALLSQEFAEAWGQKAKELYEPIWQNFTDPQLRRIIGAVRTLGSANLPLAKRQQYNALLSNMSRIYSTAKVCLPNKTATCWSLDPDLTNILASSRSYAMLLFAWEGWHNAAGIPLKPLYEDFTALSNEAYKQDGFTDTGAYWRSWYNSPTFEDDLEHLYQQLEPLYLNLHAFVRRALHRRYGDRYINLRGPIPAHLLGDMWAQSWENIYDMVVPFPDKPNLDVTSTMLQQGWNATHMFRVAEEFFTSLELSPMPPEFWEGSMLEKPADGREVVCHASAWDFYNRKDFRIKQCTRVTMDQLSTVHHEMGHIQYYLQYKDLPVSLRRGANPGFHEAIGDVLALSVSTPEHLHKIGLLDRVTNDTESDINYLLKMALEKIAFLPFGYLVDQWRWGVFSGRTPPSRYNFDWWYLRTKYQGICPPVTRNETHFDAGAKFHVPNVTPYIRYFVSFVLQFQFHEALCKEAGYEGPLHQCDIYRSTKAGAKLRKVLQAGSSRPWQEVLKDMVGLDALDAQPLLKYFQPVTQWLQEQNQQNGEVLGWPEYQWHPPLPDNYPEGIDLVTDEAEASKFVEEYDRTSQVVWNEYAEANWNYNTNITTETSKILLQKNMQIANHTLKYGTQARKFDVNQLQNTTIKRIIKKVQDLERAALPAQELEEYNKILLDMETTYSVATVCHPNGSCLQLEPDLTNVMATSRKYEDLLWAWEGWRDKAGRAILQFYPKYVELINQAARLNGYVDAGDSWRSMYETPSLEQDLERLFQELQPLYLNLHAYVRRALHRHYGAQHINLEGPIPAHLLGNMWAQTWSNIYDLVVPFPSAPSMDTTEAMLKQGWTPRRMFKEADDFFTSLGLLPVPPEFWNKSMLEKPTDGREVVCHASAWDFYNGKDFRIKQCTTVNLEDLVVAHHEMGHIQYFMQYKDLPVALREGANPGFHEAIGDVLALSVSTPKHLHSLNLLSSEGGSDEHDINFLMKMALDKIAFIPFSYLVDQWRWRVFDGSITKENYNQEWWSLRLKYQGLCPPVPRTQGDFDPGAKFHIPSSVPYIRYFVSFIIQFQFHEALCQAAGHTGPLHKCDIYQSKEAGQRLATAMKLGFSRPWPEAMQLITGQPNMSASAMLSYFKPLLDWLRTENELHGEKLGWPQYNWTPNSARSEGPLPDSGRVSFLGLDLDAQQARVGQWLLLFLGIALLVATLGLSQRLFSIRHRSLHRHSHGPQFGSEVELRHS
Test: Inhibition of human recombinant ACE by fluorescence assay
Conditions: read-out: Ki app
pKi: −log10 of the molar value.
pKi class ranges: low bracket (below 6), middle bracket (6 to below 7), high bracket (7 or more)

Field: example entries. Status: answers known.
{"smiles.structure": "CC[C@H](S)C(=O)N[C@@H](Cc1ccc(-c2ccccc2)cc1)C(=O)O", "category": "high bracket"}
{"smiles.structure": "CC(C)(S)C(=O)N[C@@H](Cc1ccc(-c2ccccc2)cc1)C(=O)O", "category": "low bracket"}
{"smiles.structure": "O=C(O)[C@H](Cc1ccc(-c2ccccc2)cc1)NC(=O)[C@@H](S)C1CCCCC1", "category": "low bracket"}
{"smiles.structure": "O=C(O)[C@H](Cc1ccc(-c2ccccc2)cc1)NC(=O)[C@@H](S)Cc1ccccc1", "category": "high bracket"}
{"smiles.structure": "CC[C@H](C)[C@H](S)C(=O)N[C@@H](Cc1ccc(-c2ccccc2)cc1)C(=O)O", "category": "middle bracket"}

Ask | Could you tell me which band CC(C)C[C@H](S)C(=O)N[C@@H](Cc1ccc(-c2ccccc2)cc1)C(=O)O belongs to?
Reply | high bracket

Ask | Category of CC(C)(C)C[C@H](S)C(=O)N[C@@H](Cc1ccc(-c2ccccc2)cc1)C(=O)O :
Reply | low bracket

Ask | Which bin, given its pKi, does O=C(O)[C@H](Cc1ccc(-c2ccccc2)cc1)NC(=O)[C@@H](S)c1ccccc1 occupy?
Reply | low bracket

Ask | Each molecule maps to one class by pKi. Which class for O=C(N[C@@H](Cc1ccc(-c2ccccc2)cc1)C(=O)O)[C@H](S)Cc1ccccc1 ?
Reply | middle bracket

Ask | Exercise: read the entry O=C(O)[C@H](Cc1ccc(-c2ccccc2)cc1)NC(=O)[C@@H](S)C1CCC1 and state which class it falls under.
Reply | middle bracket

Source of measurements: ChEMBL document CHEMBL1142293
